TEST_SUMMARY: Components of the Cytosolic LPS Sensing Pathway: Gene Identification via Genome-wide siRNA Screen;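 further: robust z of the log signal after scaling to non-targeting control siRNA wells of the plate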
SETUP_CONDITIONS: RAW264.7 macrophages, IL-1a HTRF, actives lie on both sides, screened at 100 nM (by protocol), cells primed 5 h with Pam3CSK4 first
The whole screen tested about 53,000 sequences, of which about 3,700 (7%) were called active. Only a selection was taken, and actives are over-represented in it overall.

{"SEQUENCE_STRING": "GCAAGCUAGAGAAAAUCAGTT against Serpinb3b", "z-score": -0.231}
{"SEQUENCE_STRING": "GCCAAUGAAAACCUUUUGCTT against Parp9", "z-score": -0.736}
{"SEQUENCE_STRING": "GCUAUAAUGCUGGAGUCAATT against P3h2", "z-score": 0.27}
{"SEQUENCE_STRING": "GGUAGUGAUUACGAACCAATT against Hey1", "z-score": 0.605}
{"SEQUENCE_STRING": "GCUGAAGGAUCCCAUUAGATT against Cbx2", "z-score": -1.68}
{"SEQUENCE_STRING": "GGAGUACCUGUGGUGCAUUTT against Ahcy", "z-score": 0.213}
{"SEQUENCE_STRING": "GGUCUGAUACCUCAUUCCATT against Il22ra2", "z-score": -1.21}
{"SEQUENCE_STRING": "GGCUGUGCUCAGGAUCAAATT against Olfr683", "z-score": 2.37}
{"SEQUENCE_STRING": "CGAGCAAAUCUCAUUCAAGTT against Oxgr1", "z-score": 3.07}
{"SEQUENCE_STRING": "GAAGCCUAAUCCCUUAAUCTT against Oas1g", "z-score": 1.07}
{"SEQUENCE_STRING": "GCAGGUUGCUAUGCAUAUGTT against 9930038B18Rik", "z-score": 0.722}
{"SEQUENCE_STRING": "GCUACUUGCUCAUACAAAGTT against Rag2", "z-score": 0.65}
{"SEQUENCE_STRING": "GGCUGUGAAGAACUGGCAGTT against Rnaseh2a", "z-score": 1.85}
{"SEQUENCE_STRING": "CGCAGUCAAAUUUGAAAGUTT against Car5b", "z-score": 0.775}
{"SEQUENCE_STRING": "GGCAGAUCUUCUUUGGAAATT against Ugt2b38", "z-score": 0.757}
{"SEQUENCE_STRING": "AAUUGAAGACUGUAAAUACTT against Sst", "z-score": 1.83}
{"SEQUENCE_STRING": "GGAAUAUCACUUCCAUACATT against Ntrk3", "z-score": 0.587}
{"SEQUENCE_STRING": "CGGUUCUGGUGCAUUCACATT against Olfr242", "z-score": -2.06}
{"SEQUENCE_STRING": "CGUAAAUAUGCCCGUAGUUTT against Bpifa1", "z-score": 0.31}
{"SEQUENCE_STRING": "GGCAUUUAAAACUCAUUGUTT against G6pdx", "z-score": -1.47}
{"SEQUENCE_STRING": "CCUAGACAUCAGUAAUGCGTT against Zbtb17", "z-score": -0.43}
{"SEQUENCE_STRING": "GGCCCAAGAGCAUUCUGGATT against Slc25a19", "z-score": 0.552}
{"SEQUENCE_STRING": "GCCCUGAUGCAAGCUUGUGTT against Gprin3", "z-score": 0.193}
{"SEQUENCE_STRING": "GGGCAUCCUGGAUCAUCAUTT against Nlrp6", "z-score": -1.64}
{"SEQUENCE_STRING": "GGAAGGACAAUCAGUUCCUTT against Thsd7b", "z-score": 0.999}
